B1: SMOC2 (parent)
chain: QKPLCASDGRTFLSRCEFQRAKCK

Variants of: B1
Assay: protein stability index of a GFP-peptide fusion (GPS, HEK-293T) (PSI 1-6); higher = more stable;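 note: lentivirally expressed fusions sorted by FACS into six bins by GFP to DsRed ratio, PSI derived from sequencing read proportions per bin multiplied by bin number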
Conditions: c terminus: a fixed tail appended
assay metric: protein stability index

{"biosequence": "QKPLCASDGRTFLSRCEFSRAKCK [Q19S]", "value": 4.18}
{"biosequence": "QKPLCASDGRTFLARCEFQRAKCK [S14A]", "value": 3.42}
{"biosequence": "QKPLCASDGRTFLSRCEFQRTKCK [A21T]", "value": 3.4}
{"biosequence": "QKPLCASDGRTFLSRCEHQRAKCK [F18H]", "value": 4.32}
